Reference source for all entries: ChEMBL document CHEMBL5576125

Assay: Ratio of unbound drug concentration in female athymic nude Foxn1nu mouse brain to plasma at 30 mg/kg, po administered as single dose and measured after 24 hrs by LC/MS analysis
Type: ADME, organism-based
Details: read-out: K(p,uu,brain)
experimental endpoint: Kp uu at 24 h
API note: the answer field is a bare number with no unit suffix.

# input Find the recorded Kp uu at 24 h belonging to Cn1ccc([C@H]2C[C@H](N(c3cc(F)c(NC(=O)c4ccnn(-c5ccc(F)cn5)c4=O)cc3F)c3nccn4nccc34)C2)n1 and report it.
# output 0.11

###

Assay: Apparent permeability across apical to basolateral side in MDCKII-MDR1 cells at 1 uM incubated for 2 hrs in orbital shaker by LC-MS/MS analysis
Format: ADME, cell-based, Canis lupus familiaris
Settings: dog, MDCK-MDR1
# label = 1 if Papp A→B at 2 h, 1 µM < 5 ×10⁻⁶ cm/s else -1

# input Strictly below 5 ×10⁻⁶ cm/s: is that where Papp A→B at 2 h, 1 µM of Cn1ccc([C@H]2C[C@H](N(c3cc(Cl)c(NC(=O)c4ccnn(-c5ccc(F)cn5)c4=O)cc3F)c3nccn4nccc34)C2)n1 sits?
# output -1

# input What would you report for Cn1ccc([C@H]2C[C@H](N(c3cc(F)c(NC(=O)c4ccnn(-c5ccc(F)cn5)c4=O)cc3F)c3cc(F)cn4nccc34)C2)n1 ?
# output 1

# input What would you report for Cn1ccc([C@H]2C[C@H](N(c3cc(F)c(NC(=O)c4ccnn(-c5ccc(F)cn5)c4=O)cc3F)c3nccn4nccc34)C2)n1 ?
# output -1

# input What would you report for Cc1cc(N(c2cc(F)c(NC(=O)c3ccnn(-c4ccc(F)cn4)c3=O)cc2F)[C@H]2C[C@H](c3ccn(C)n3)C2)c(F)cn1 ?
# output -1

# input What would you report for Cc1cc(N(c2nccn3nccc23)[C@H]2C[C@H](c3ccn(C)n3)C2)c(F)cc1NC(=O)c1ccnn(-c2ccc(F)cn2)c1=O ?
# output 1

###

Molecular target: Hepatocyte growth factor receptor (Homo sapiens, UniProt P08581, F1200I)
Test: Displacement of tracer 236 from N-terminal GST-tagged recombinant human MET F1200I mutant (956 to end residues) expressed in Sf9 insect cells incubated for 1 hr by TR-FRET assay
# label = criterion met if IC50 < 300 nM else criterion not met

# input Strictly below 300 nM: is that where IC50 of Cn1ccc([C@H]2C[C@H](N(c3cc(F)c(NC(=O)c4ccnn(-c5ccc(F)cn5)c4=O)cc3F)c3cc(F)cn4nccc34)C2)n1 sits?
# output criterion met

# input What would you report for Cn1ccc([C@H]2C[C@H](N(c3cc(C(F)F)c(NC(=O)c4ccnn(-c5ccc(F)cn5)c4=O)cc3F)c3nccn4nccc34)C2)n1 ?
# output criterion not met

# input What would you report for Cn1ccc([C@H]2C[C@H](N(c3cc(F)c(NC(=O)c4ccnn(-c5ccc(F)cn5)c4=O)cc3F)c3cccn4nccc34)C2)n1 ?
# output criterion met

# input What would you report for CO[C@H]1C[C@@H](N(c2cc(F)c(NC(=O)c3ccnn(-c4ccc(F)cn4)c3=O)cc2F)c2cccn3nccc23)C1 ?
# output criterion met

# input What would you report for CCN(c1cc(F)c(NC(=O)c2ccnn(-c3ccc(F)cc3)c2=O)cc1F)c1cccn2nccc12 ?
# output criterion not met

# input What would you report for COc1cc(N(c2cc(F)c(NC(=O)c3ccnn(-c4ccc(F)cn4)c3=O)cc2F)[C@H]2C[C@H](c3ccn(C)n3)C2)c2ccnn2c1 ?
# output criterion met

# input What would you report for Cn1ccc([C@H]2C[C@H](N(c3cc(F)c(NC(=O)c4ccnn(-c5ccc(F)cn5)c4=O)cc3F)c3nccn4nccc34)C2)n1 ?
# output criterion met

###

Target: Hepatocyte growth factor receptor (Homo sapiens, UniProt P08581, D1228N)
Sequence (P08581 25-1390 D1228N limits assumed): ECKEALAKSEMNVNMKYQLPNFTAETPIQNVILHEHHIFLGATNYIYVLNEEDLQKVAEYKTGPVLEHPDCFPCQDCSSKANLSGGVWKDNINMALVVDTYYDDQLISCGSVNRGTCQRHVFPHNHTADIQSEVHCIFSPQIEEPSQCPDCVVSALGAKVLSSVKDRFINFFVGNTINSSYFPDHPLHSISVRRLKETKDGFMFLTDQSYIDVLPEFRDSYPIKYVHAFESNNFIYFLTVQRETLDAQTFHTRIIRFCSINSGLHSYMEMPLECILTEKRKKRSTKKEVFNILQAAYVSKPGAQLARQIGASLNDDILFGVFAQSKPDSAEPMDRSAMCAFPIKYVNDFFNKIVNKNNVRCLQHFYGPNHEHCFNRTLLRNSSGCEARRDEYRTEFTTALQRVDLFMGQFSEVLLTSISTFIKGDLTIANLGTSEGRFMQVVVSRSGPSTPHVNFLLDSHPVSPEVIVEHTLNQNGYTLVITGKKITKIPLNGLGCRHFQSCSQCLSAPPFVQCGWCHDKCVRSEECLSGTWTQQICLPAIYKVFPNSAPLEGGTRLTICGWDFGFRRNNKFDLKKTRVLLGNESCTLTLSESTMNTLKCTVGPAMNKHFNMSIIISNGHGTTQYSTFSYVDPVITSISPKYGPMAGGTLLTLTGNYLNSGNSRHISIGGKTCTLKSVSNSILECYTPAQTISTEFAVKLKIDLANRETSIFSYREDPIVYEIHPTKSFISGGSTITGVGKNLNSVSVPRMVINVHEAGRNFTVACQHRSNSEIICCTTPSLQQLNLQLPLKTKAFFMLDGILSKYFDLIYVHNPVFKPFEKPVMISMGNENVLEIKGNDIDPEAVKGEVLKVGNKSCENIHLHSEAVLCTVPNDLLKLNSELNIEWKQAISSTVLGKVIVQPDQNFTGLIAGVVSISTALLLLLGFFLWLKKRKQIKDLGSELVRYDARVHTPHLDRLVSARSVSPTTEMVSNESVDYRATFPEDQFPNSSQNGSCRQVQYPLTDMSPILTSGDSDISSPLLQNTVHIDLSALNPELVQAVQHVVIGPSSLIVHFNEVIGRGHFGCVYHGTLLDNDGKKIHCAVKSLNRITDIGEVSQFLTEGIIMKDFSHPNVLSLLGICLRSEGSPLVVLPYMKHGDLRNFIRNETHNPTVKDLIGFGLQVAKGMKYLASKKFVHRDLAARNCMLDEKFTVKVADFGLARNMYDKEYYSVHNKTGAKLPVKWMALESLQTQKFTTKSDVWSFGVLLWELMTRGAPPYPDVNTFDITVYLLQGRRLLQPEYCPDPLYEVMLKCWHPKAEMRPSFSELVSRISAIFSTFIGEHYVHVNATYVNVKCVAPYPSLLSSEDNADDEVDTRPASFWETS
Assay: Inhibition of MET D1228N mutant (unknown origin) transfected in mouse NIH3T3 cells incubated for 1 hr by In-Cell Western assay
Type: cell-based
Please respond with reported pIC50 for every item in the list.
Expect pIC50 as a plain number equal to -log10 of the molar concentration.

# input Find the recorded pIC50 belonging to Cn1ccc([C@H]2C[C@H](N(c3cc(F)c(NC(=O)c4ccnn(-c5ccc(F)cn5)c4=O)cc3F)c3cc(F)cn4nccc34)C2)n1 and report it.
# output 7.43

# input What would you report for Cn1ccc([C@H]2C[C@H](N(c3cc(C(F)F)c(NC(=O)c4ccnn(-c5ccc(F)cn5)c4=O)cc3F)c3nccn4nccc34)C2)n1 ?
# output 6.28

# input What would you report for Cn1ccc([C@H]2C[C@H](N(c3cc(F)c(NC(=O)c4ccnn(-c5ccc(F)cn5)c4=O)cc3F)c3cccn4nccc34)C2)n1 ?
# output 7.70

###

Assay: Metabolic stability in mouse hepatocytes assessed as clearance at 2 uM measured upto 120 mins by LC-MS/MS analysis
Type: ADME, cell-based, Hepatocyte
Please respond with reported CLhep predicted at 2 µM for every item in the list.
Please respond with the number in mL/min/kg and leave the unit unwritten.

# input Find the recorded CLhep predicted at 2 µM belonging to Cn1ccc([C@H]2C[C@H](N(c3cc(F)c(NC(=O)c4ccnn(-c5ccc(F)cn5)c4=O)cc3F)c3cccn4nccc34)C2)n1 and report it.
# output 77

# input What would you report for Cn1ccc([C@H]2C[C@H](N(c3cc(F)c(NC(=O)c4ccnn(-c5ccc(F)cn5)c4=O)cc3Cl)c3nccn4nccc34)C2)n1 ?
# output 31

# input What would you report for COc1cc(N(c2cc(F)c(NC(=O)c3ccnn(-c4ccc(F)cn4)c3=O)cc2F)[C@H]2C[C@H](c3ccn(C)n3)C2)c2ccnn2c1 ?
# output 38

# input What would you report for Cn1ccc([C@H]2C[C@H](N(c3cc(F)c(NC(=O)c4ccnn(-c5ccc(F)cn5)c4=O)cc3F)c3nccn4nccc34)C2)n1 ?
# output 35

# input What would you report for Cn1ccc([C@H]2C[C@H](N(c3cc(F)c(NC(=O)c4ccnn(-c5ccc(F)cn5)c4=O)cc3F)c3cc(F)cn4nccc34)C2)n1 ?
# output 15

# input What would you report for Cn1ccc([C@H]2C[C@H](N(c3cc(Cl)c(NC(=O)c4ccnn(-c5ccc(F)cn5)c4=O)cc3F)c3nccn4nccc34)C2)n1 ?
# output 9

# input What would you report for Cc1cc(N(c2cc(F)c(NC(=O)c3ccnn(-c4ccc(F)cn4)c3=O)cc2F)[C@H]2C[C@H](c3ccn(C)n3)C2)c(F)cn1 ?
# output 31

# input What would you report for Cc1cc(N(c2nccn3nccc23)[C@H]2C[C@H](c3ccn(C)n3)C2)c(F)cc1NC(=O)c1ccnn(-c2ccc(F)cn2)c1=O ?
# output 17

###

Molecular target: Hepatocyte growth factor receptor (Homo sapiens, UniProt P08581, D1228N)
Experiment: Inhibition of MET D1228N mutant (unknown origin) transfected in mouse NIH3T3 cells incubated for 1 hr by In-Cell Western assay
Assay type: cell-based
# label = 1 if IC50 < 60 nM else -1

# input Strictly below 60 nM: is that where IC50 of Cn1ccc([C@H]2C[C@H](N(c3cc(Cl)c(NC(=O)c4ccnn(-c5ccc(F)cn5)c4=O)cc3F)c3nccn4nccc34)C2)n1 sits?
# output -1

# input What would you report for Cn1ccc([C@H]2C[C@H](N(c3cc(F)c(NC(=O)c4ccnn(-c5ccc(F)cn5)c4=O)cc3F)c3nccn4nccc34)C2)n1 ?
# output 1

# input What would you report for O=C(Nc1cc(F)c(Oc2cccn3nccc23)cc1F)c1ccnn(-c2ccc(F)cc2)c1=O ?
# output -1

# input What would you report for COc1cc(N(c2cc(F)c(NC(=O)c3ccnn(-c4ccc(F)cn4)c3=O)cc2F)[C@H]2C[C@H](c3ccn(C)n3)C2)c2ccnn2c1 ?
# output 1

# input What would you report for CC(C)(C#N)CN(c1cc(F)c(NC(=O)c2ccnn(-c3ccc(F)cn3)c2=O)cc1F)c1cccn2nccc12 ?
# output 1

# input What would you report for CO[C@H]1C[C@@H](N(c2cc(F)c(NC(=O)c3ccnn(-c4ccc(F)cn4)c3=O)cc2F)c2cccn3nccc23)C1 ?
# output 1

# input What would you report for Cc1cc2c(N(c3cc(F)c(NC(=O)c4ccnn(-c5ccc(F)cn5)c4=O)cc3F)[C@H]3C[C@H](c4ccn(C)n4)C3)nccn2n1 ?
# output -1

# input What would you report for Cn1ccc(CCN(c2cc(F)c(NC(=O)c3ccnn(-c4ccc(F)cn4)c3=O)cc2F)c2cccn3nccc23)n1 ?
# output 1

# input What would you report for CC(C)N(c1cc(F)c(NC(=O)c2ccnn(-c3ccc(F)cc3)c2=O)cc1F)c1cccn2nccc12 ?
# output -1

# input What would you report for O=C(Nc1cc(F)c(N(c2cccn3nccc23)C2CCC2)cc1F)c1ccnn(-c2ccc(F)cc2)c1=O ?
# output -1

# input What would you report for CC(C)(C#N)CN(c1cc(F)c(NC(=O)c2ccnn(-c3ccc(F)cc3)c2=O)cc1F)c1cccn2nccc12 ?
# output 1

# input What would you report for Cn1ccc([C@H]2C[C@H](N(c3cc(F)c(NC(=O)c4ccnn(-c5ccc(F)cn5)c4=O)cc3Cl)c3nccn4nccc34)C2)n1 ?
# output 1

# input What would you report for Cc1cc(N(c2cc(F)c(NC(=O)c3ccnn(-c4ccc(F)cn4)c3=O)cc2F)[C@H]2C[C@H](c3ccn(C)n3)C2)c(F)cn1 ?
# output 1

# input What would you report for CCN(c1cc(F)c(NC(=O)c2ccnn(-c3ccc(F)cc3)c2=O)cc1F)c1cccn2nccc12 ?
# output -1

# input What would you report for Cc1cc(N(c2nccn3nccc23)[C@H]2C[C@H](c3ccn(C)n3)C2)c(F)cc1NC(=O)c1ccnn(-c2ccc(F)cn2)c1=O ?
# output 1
